Origin of values: patent US8580815B2

// IC50 lookup, one value per entry
- MEASUREMENT_TARGET: Abl kinase (h) (Homo sapiens (Human), UniProt P00519)
- EXPERIMENT_DESCRIPTION: Cerep kinase profiling, HTRF assay, Abl kinase
- Type: biochemical
- RECORDED_CONDITIONS: Table 9; Cerep, 5 concentrations 10^−10 M to 10^−4 M; read-out: IC50 in M Abl
- Description: The inhibitory activity of the compounds of the chemical series on different protein kinases was evaluated by Cerep (Cerep Kinase Profiling Service; www.cerep.com). The kinases used in the tests in vitro are human recombinant proteins expressed in human cells, insect cells or in bacteria. […] The activity of the kinase was then detected by an HTRF assay. The HTRF assay (CisBio International) is based on fluorescence transfer, using Europium (Eu3+) cryptate and XL665 respectively as donor and acceptor. […]

[
  {
    "TEST_SMILES": "O=C(Nc1cnc2[nH]c(CNc3ccc(O)cc3)cc2c1)c1ccccc1Br",
    "MODIFIER_SIGN": "=",
    "IC50 [µM]": 2.6
  },
  {
    "TEST_SMILES": "O=C(Nc1cnc2[nH]c(Cn3ccnc3)cc2c1)c1ccccc1Br",
    "MODIFIER_SIGN": "=",
    "IC50 [µM]": 4
  },
  {
    "TEST_SMILES": "O=C(Nc1cnc2[nH]c(C(=O)NCCN3CCOCC3)cc2c1)c1cccc(F)c1",
    "MODIFIER_SIGN": ">",
    "IC50 [µM]": 100
  },
  {
    "TEST_SMILES": "Cc1nc(-c2cccc(C(=O)Nc3cnc4[nH]c(C(=O)NCCCN(C)C)cc4c3)c2)cs1",
    "MODIFIER_SIGN": ">",
    "IC50 [µM]": 100
  },
  {
    "TEST_SMILES": "COC(=O)c1cc2cc(NC(=O)c3ccccc3Br)cnc2[nH]1",
    "MODIFIER_SIGN": "=",
    "IC50 [µM]": 0.46
  },
  {
    "TEST_SMILES": "O=C(Nc1cnc2[nH]c(C(=O)N3CCOCC3)cc2c1)c1cc([N+](=O)[O-])ccc1F",
    "MODIFIER_SIGN": ">",
    "IC50 [µM]": 100
  }
]

---

- MEASUREMENT_TARGET: Src kinase (h) (Homo sapiens (Human), UniProt P12931)
- EXPERIMENT_DESCRIPTION: Cerep kinase profiling, HTRF assay, Src kinase
- Type: biochemical
- RECORDED_CONDITIONS: compound incubated at 10 μM; read-out: Percentage inhibition of kinase c-Src

[
  {
    "COMPOUND": "O=C(Nc1cnc2[nH]c(CNc3ccc(O)cc3)cc2c1)c1ccccc1Br [ND0038]",
    "MEASUREMENT_TARGET": "Src kinase (h) (Homo sapiens (Human), UniProt P12931)",
    "inhibition at 10 µM / %": 71
  },
  {
    "COMPOUND": "COCc1cc2cc(NC(=O)c3ccccc3Br)cnc2[nH]1 [ND0021]",
    "MEASUREMENT_TARGET": "Src kinase (h) (Homo sapiens (Human), UniProt P12931)",
    "inhibition at 10 µM / %": 59
  },
  {
    "COMPOUND": "CN(C)CCCNC(=O)c1cc2cc(NC(=O)c3ccccc3Br)cnc2[nH]1 [ND0009]",
    "MEASUREMENT_TARGET": "Src kinase (h) (Homo sapiens (Human), UniProt P12931)",
    "inhibition at 10 µM / %": 90
  },
  {
    "COMPOUND": "COC(=O)c1cc2cc(NC(=O)c3ccccc3Br)cnc2[nH]1 [ND0020]",
    "MEASUREMENT_TARGET": "Src kinase (h) (Homo sapiens (Human), UniProt P12931)",
    "inhibition at 10 µM / %": 50
  },
  {
    "COMPOUND": "O=C(Nc1cnc2[nH]c(Cc3ccc[nH]3)cc2c1)c1ccccc1Br [ND0037]",
    "MEASUREMENT_TARGET": "Src kinase (h) (Homo sapiens (Human), UniProt P12931)",
    "inhibition at 10 µM / %": 72
  },
  {
    "COMPOUND": "COC(=O)c1cc2cc(NC(=O)c3c(F)cccc3OC)cnc2[nH]1 [ND0047]",
    "MEASUREMENT_TARGET": "Src kinase (h) (Homo sapiens (Human), UniProt P12931)",
    "inhibition at 10 µM / %": 74
  }
]
